Tested on: UACC-257
Test: NCI tumour cell line growth inhibition, 48 h
The source made the active and inactive calls. Cut-off read from the data, not from the text of the source: active = GI50 up to about 1.1 µM and inactive = higher. Non-standard residues stand in square brackets, D forms with d. Residues, ends and D or L forms follow the SMILES beside them. ξ: configuration not given here. *: point of attachment. NMeF = CN[C@@H](Cc1ccccc1)C(=O)O; NMeN = CN[C@@H](CC(N)=O)C(=O)O; NMeV = CN[C@H](C(=O)O)C(C)C; ξNMeV = CNC(C(=O)O)C(C)C; Boc = CC(C)(C)OC(=O)*; ξNMeA = CNC(C)C(=O)O; ξV = CC(C)C(N)C(=O)O
value-type: GI50

Input line: GI50 for CN1C(=O)C23CCCCC2CC1(c1ccccc1)S3 (stereo unspecified) ?
Output line: 18.3 µM (inactive)

Input line: For O=C1Nc2ccc([N+](=O)[O-])cc2/C1=N/Nc1ccc([N+](=O)[O-])cc1 then?
Output line: 21.1 µM (inactive)

Input line: For O=c1c2cccnc2[nH]c2ccc3scnc3c12 then?
Output line: > 10 µM (inactive)

Input line: For CN(C)Cc1[nH]c2ccccc2c1C(=O)c1ccccc1 then?
Output line: > 100 µM (inactive)

Input line: For C=CCC12CC(=O)C=C1CCC1(C2)OCCO1 (stereo unspecified) then?
Output line: > 100 µM (inactive)

Input line: For COc1cc2c(cc1O)[C@H](C)C(c1ccc(OC)c(OC)c1)O2 (stereo partly specified) then?
Output line: 10.9 µM (inactive)

Input line: For Cc1c(C(=O)O)n(C)c(=O)n(C)c1=O then?
Output line: > 100 µM (inactive)

Input line: For COC(=O)/C=C(\C)C(=O)N(C)c1ccccc1I then?
Output line: > 100 µM (inactive)

Input line: For CC(=O)Nc1ccc(/C=N\N2C(=O)c3ccccc3C2=O)cc1 then?
Output line: > 100 µM (inactive)

Input line: For CN(C)c1ccc(C(c2ccc(N(C)C)cc2)c2ccc([N+](=O)[O-])cc2)cc1 then?
Output line: > 100 µM (inactive)

Input line: For CCCCCCCCCCCC(=O)c1c(O)cc(C)oc1=O then?
Output line: 57.9 µM (inactive)

Input line: For Cc1ccc(-n2c(C)nc3c2C(=O)c2ccccc2C3=O)cc1 then?
Output line: 19.1 µM (inactive)

Input line: For N[C@H](C(=O)O)[C@@H]1CC(Br)=NO1 then?
Output line: 54.2 µM (inactive)

Input line: For COC(=O)C(C)N(C)C(=O)[C@H](CC(N)=O)N(C)C(=O)[C@@H]1CCCN1C(=O)[C@H](C(C)C)N(C)C(=O)C(C(C)C)N(C)C(=O)[C@H](Cc1ccccc1)N(C)C(=O)C(NC(=O)OC(C)(C)C)C(C)C (stereo partly specified) (Boc-[ξV][NMeF][ξNMeV][NMeV]P[NMeN][ξNMeA]-OMe) then?
Output line: 25.6 µM (inactive)

Input line: For Cc1cccc(NC(=O)/C(=N\NC(C)(C)C)C2NC(=S)NC2=O)c1C (stereo unspecified) then?
Output line: > 100 µM (inactive)

Input line: For CC(C)CNc1nc(N)nc(O)c1NC=O then?
Output line: > 100 µM (inactive)

Input line: For COC(=O)/C(=C/c1ccc(OC)cc1)c1cc(OC)c(OC)c(OC)c1 then?
Output line: 7.83 µM (inactive)

Input line: For C=C(/C=C/C=C(\CO)CCC=C(C)C)[C@H]1CCC2([C@H](CCCO)/C(=C(/C)C=O)CC[C@]2(C)O)[C@H]1O (stereo partly specified) then?
Output line: > 100 µM (inactive)

Input line: For O=C1C2CCCCC2C(=O)N1n1c(Cc2ccccc2)n[nH]c1=O (stereo unspecified) then?
Output line: > 100 µM (inactive)

Input line: For Cc1ccc2c(c1)CC1(Cc3cc(C)ccc3C1=O)C2=O then?
Output line: > 100 µM (inactive)

Input line: For O=P1(N(CCCl)CCCl)NCCCO1 (stereo unspecified) [CYCLOPHOSPHAMIDE ANHYDROUS] then?
Output line: 211 µM (inactive)
